Values were extracted from ChEMBL document CHEMBL3992539.

SYSTEM_TESTED: Phosphatidylinositol 4,5-bisphosphate 3-kinase catalytic subunit delta isoform (Homo sapiens)
Sequence (O00329 whole entry, canonical isoform): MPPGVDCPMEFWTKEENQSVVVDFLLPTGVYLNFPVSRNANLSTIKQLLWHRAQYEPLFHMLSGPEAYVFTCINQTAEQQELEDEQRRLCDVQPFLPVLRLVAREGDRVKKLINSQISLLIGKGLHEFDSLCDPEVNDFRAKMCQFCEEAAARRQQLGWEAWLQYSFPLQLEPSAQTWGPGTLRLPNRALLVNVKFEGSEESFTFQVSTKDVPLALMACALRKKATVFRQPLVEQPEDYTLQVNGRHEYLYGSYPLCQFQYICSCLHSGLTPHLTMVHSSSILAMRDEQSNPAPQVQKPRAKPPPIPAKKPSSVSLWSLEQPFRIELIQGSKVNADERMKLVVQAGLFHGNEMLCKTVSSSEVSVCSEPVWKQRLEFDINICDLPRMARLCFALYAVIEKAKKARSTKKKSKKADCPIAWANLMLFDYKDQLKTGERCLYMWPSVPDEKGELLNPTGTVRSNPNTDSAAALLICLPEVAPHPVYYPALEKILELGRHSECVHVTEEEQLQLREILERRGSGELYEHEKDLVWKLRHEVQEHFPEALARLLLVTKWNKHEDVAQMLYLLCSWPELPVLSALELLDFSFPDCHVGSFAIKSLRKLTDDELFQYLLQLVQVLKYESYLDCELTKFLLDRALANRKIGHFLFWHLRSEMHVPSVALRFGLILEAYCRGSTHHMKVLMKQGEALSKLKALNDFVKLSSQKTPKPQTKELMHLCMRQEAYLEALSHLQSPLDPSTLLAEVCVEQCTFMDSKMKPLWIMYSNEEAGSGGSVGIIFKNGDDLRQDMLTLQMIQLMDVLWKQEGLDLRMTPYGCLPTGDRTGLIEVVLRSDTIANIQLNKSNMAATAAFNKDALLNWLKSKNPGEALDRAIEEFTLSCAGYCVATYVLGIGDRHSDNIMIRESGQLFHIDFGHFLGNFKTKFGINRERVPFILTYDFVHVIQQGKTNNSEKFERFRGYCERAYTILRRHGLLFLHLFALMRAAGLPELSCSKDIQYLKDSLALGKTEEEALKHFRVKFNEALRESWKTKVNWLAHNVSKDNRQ
PROTOCOL_SUMMARY: Inhibition of PI3K p110delta (unknown origin) using PIP2 as substrate after 1 hr by ADP-Glo kinase assay
pIC50: −log10 of the molar value.

COMPOUND_SMILES: COc1ncc(-c2ccc3ncc(NC(=O)CN4CCOCC4)c(OC)c3c2)cc1NS(=O)(=O)c1ccc(F)cc1F
pIC50: 9.06

====

PROTOCOL_SUMMARY: AUCt in mouse at 5 mg/kg, po by UPLC-MS/MS analysis
Format: ADME, organism-based
EXPERIMENTAL_SETUP: in vivo
RECORDED_METRIC: AUC(0-t) (ng·h/mL)

COMPOUND_SMILES: COc1ncc(-c2ccc3ncc(NC(=O)CN4CCOCC4)c(OC)c3c2)cc1NS(=O)(=O)c1ccc(F)cc1F
VALUE_OBSERVED: 11700

====

SYSTEM_TESTED: PI3K p110 beta/p85 alpha (Homo sapiens)
Sequence (P27986 whole entry): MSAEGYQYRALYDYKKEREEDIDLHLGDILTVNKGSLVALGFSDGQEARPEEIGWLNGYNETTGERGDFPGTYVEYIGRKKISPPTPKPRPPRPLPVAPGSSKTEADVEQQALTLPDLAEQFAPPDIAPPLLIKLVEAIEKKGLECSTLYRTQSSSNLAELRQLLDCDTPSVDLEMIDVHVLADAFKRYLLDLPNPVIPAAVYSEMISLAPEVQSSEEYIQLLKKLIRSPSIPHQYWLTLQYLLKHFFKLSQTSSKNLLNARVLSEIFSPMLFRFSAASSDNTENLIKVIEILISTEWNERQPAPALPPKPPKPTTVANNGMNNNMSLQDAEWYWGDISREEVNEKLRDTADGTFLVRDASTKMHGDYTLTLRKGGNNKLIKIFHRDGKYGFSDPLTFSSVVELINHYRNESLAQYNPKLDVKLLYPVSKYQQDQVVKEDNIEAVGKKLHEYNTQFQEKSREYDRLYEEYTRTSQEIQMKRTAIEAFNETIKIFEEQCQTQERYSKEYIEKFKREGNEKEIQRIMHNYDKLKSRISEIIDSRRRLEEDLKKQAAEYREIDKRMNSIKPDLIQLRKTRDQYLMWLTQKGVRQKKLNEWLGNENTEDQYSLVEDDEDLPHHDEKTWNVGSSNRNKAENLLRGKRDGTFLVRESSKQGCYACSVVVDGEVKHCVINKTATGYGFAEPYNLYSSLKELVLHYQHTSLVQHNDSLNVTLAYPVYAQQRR
Sequence (P42338 whole entry): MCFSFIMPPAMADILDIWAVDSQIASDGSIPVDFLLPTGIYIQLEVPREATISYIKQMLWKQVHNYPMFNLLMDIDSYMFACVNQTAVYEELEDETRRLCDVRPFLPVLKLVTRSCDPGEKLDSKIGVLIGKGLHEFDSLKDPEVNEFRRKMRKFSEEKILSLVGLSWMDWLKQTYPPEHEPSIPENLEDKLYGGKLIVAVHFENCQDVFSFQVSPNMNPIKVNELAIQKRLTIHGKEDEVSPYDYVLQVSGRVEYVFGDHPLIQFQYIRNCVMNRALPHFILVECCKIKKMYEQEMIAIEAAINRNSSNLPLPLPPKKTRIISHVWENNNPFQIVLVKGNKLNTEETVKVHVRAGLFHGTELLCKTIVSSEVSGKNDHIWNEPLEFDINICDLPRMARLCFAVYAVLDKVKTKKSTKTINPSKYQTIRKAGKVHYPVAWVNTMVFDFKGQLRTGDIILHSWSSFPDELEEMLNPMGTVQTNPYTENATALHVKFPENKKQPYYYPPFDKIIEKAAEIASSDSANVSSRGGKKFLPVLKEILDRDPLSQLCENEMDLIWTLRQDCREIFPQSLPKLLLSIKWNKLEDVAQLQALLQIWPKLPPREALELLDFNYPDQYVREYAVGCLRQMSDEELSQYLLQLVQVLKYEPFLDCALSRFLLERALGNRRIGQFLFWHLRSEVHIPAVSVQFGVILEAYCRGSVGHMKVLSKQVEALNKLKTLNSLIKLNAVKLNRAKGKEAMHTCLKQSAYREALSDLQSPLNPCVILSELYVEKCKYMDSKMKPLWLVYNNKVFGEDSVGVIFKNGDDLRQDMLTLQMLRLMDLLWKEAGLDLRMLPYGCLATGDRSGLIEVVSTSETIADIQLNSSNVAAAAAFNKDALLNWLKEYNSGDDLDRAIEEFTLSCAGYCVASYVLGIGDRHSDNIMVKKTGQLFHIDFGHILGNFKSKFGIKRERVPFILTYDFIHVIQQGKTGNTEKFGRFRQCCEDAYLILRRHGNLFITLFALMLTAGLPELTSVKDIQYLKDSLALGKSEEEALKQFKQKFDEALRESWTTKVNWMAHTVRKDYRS
PROTOCOL_SUMMARY: Inhibition of recombinant full length human N-terminal His6-tagged PI3K p110beta/p85alpha expressed in baculovirus infected Sf21 cells using PIP2 as substrate after 1 hr by ADP-Glo kinase assay
RECORDED_METRIC: IC50 (nM)

COMPOUND_SMILES: COc1ncc(-c2ccc3ncc(NC(=O)CN4CCOCC4)c(OC)c3c2)cc1NS(=O)(=O)c1ccc(F)cc1F
VALUE_OBSERVED: 3.9

====

PROTOCOL_SUMMARY: Terminal half life in mouse at 5 mg/kg, po by UPLC-MS/MS analysis
Format: ADME, organism-based
EXPERIMENTAL_SETUP: in vivo, read-out: beta t1/2 (converted)
RECORDED_METRIC: half-life (h)

COMPOUND_SMILES: COc1ncc(-c2ccc3ncc(NC(=O)CN4CCOCC4)c(OC)c3c2)cc1NS(=O)(=O)c1ccc(F)cc1F
UNIT_OF_MEASURE: h
VALUE_OBSERVED: 1.6

====

PROTOCOL_SUMMARY: Cmax in mouse at 5 mg/kg, po by UPLC-MS/MS analysis
Type: ADME, organism-based
Parameters: dose 5 mg/kg, route oral
EXPERIMENTAL_SETUP: in vivo

COMPOUND_SMILES: COc1ncc(-c2ccc3ncc(NC(=O)CN4CCOCC4)c(OC)c3c2)cc1NS(=O)(=O)c1ccc(F)cc1F
Cmax [ng/mL]: 2950

====

SYSTEM_TESTED: PI3-kinase p110-alpha/p85-alpha (Homo sapiens)
Sequence (P27986 whole entry): as the sequence (P27986 whole entry) above
Sequence (P42336 whole entry): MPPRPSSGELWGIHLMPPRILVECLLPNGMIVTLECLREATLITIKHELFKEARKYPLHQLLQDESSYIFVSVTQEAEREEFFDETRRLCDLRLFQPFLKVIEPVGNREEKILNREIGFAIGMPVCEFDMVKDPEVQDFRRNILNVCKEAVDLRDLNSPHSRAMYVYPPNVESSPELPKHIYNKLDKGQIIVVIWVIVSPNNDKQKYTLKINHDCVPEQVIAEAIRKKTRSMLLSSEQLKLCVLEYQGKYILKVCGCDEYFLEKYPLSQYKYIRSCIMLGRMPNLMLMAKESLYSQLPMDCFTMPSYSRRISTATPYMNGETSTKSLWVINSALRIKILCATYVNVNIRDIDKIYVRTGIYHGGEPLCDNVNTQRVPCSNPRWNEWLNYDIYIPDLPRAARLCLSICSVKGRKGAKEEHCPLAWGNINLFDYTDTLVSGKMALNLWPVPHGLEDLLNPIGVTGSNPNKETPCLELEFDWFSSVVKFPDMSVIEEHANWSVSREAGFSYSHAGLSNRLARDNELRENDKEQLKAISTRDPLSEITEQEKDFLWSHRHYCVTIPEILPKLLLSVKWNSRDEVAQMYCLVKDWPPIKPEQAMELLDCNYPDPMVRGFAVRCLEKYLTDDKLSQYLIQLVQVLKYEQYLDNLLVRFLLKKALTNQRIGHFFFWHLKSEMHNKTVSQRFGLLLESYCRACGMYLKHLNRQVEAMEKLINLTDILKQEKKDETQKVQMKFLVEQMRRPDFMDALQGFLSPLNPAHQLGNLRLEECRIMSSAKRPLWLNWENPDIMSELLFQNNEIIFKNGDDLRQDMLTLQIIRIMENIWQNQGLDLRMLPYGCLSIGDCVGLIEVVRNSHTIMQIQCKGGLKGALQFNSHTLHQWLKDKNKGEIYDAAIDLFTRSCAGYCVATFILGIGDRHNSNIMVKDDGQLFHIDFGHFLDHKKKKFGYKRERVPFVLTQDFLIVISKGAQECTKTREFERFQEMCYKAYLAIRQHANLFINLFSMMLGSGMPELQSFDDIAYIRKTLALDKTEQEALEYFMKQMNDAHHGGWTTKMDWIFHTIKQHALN
PROTOCOL_SUMMARY: Inhibition of PI3K p110alpha/p85alpha (unknown origin) using PIP2 as substrate after 1 hr by luminescent kinase-Glo assay
Documented IC50 across a set of compounds

COMPOUND: COc1ncc(-c2ccc3ncc(NC(=O)CN4CCCC(O)C4)c(OC)c3c2)cc1NS(=O)(=O)c1ccc(F)cc1F (stereo not drawn)
SYSTEM_TESTED: PI3-kinase p110-alpha/p85-alpha (Homo sapiens)
IC50 (nM): 1.5
--
COMPOUND: COc1ncc(-c2ccc3ncc(NC(=O)CN4CCOCC4)c(OC)c3c2)cc1NS(=O)(=O)c1ccc(C(F)(F)F)cc1
SYSTEM_TESTED: PI3-kinase p110-alpha/p85-alpha (Homo sapiens)
IC50 (nM): 2.26
--
COMPOUND: COc1ncc(-c2ccc3ncc(NCC4CCCCC4)c(OC)c3c2)cc1NS(=O)(=O)c1ccc(F)cc1F
SYSTEM_TESTED: PI3-kinase p110-alpha/p85-alpha (Homo sapiens)
IC50 (nM): 210
--
COMPOUND: COc1ncc(-c2ccc3ncc(NC(=O)CN4CCN(C)CC4)c(OC)c3c2)cc1NS(=O)(=O)c1ccc(F)cc1F
SYSTEM_TESTED: PI3-kinase p110-alpha/p85-alpha (Homo sapiens)
IC50 (nM): 3.2
--
COMPOUND: COc1ccc(CNc2cnc3ccc(-c4cnc(OC)c(NS(=O)(=O)c5ccc(F)cc5F)c4)cc3c2OC)cc1
SYSTEM_TESTED: PI3-kinase p110-alpha/p85-alpha (Homo sapiens)
IC50 (nM): 27
--
COMPOUND: CCNc1cnc2ccc(-c3cnc(OC)c(NS(=O)(=O)c4ccc(F)cc4F)c3)cc2c1OC
SYSTEM_TESTED: PI3-kinase p110-alpha/p85-alpha (Homo sapiens)
IC50 (nM): 9.4
--
COMPOUND: COc1ncc(-c2ccc3ncc(NC(=O)CN4CCOCC4)c(OC)c3c2)cc1NS(=O)(=O)c1ccc(F)cc1
SYSTEM_TESTED: PI3-kinase p110-alpha/p85-alpha (Homo sapiens)
IC50 (nM): 2.7
--
COMPOUND: COc1ncc(-c2ccc3ncc(NCC4CCN(S(C)(=O)=O)CC4)c(OC)c3c2)cc1NS(=O)(=O)c1ccc(F)cc1F
SYSTEM_TESTED: PI3-kinase p110-alpha/p85-alpha (Homo sapiens)
IC50 (nM): 4.7
